- Test system: SK-MEL-2 melanoma
- method: NCI tumour cell line growth inhibition, 48 h
As shown below, each of these compounds has a reported TGI value.

>  <compound>
CCOc1ccccc1NC(=O)C1=C(C)NC(C)=C(C(=O)Nc2ccccc2OCC)C1c1ccc(NC(C)=O)cc1

>  <assay.readout>
TGI

>  <value.measured>
58.6 µM

$$$$
>  <compound>
COC(=O)/C=C(/C(=O)OC)c1c(C)cc2c(C)cc(C)cc(C)c1-2

>  <assay.readout>
TGI

>  <value.measured>
> 77.1 µM

$$$$

Data request, read-out TGI, for CCN1C[C@]2(C)CC[C@H](OCc3ccccc3)C34C5C[C@@H]6CC[C@](O)(C(C[C@@H]32)C14)C5[C@H]6OCc1ccccc1 (stereo partly drawn)
> 100 µM

Data origin: PubChem BioAssay (NCI)
